- Test system: rat fat cells
- test summary: Glucose transport in isolated rat fat cells (insulin-like activity)
- Format: cell-based, rat (Wistar)
- condition description: concentration at 50% of the maximum stimulation achieved by the respective compound; rat fat cells, 2-[3H]-deoxyglucose; read-out: Glucose transport EC50
- Protocol: This example provides exemplary methods for determining insulin-like activity. The biological activity of the compounds of the formula I according to the invention is determined with the aid of isolated fat cells from the rat. […] […] After addition of 5 ml of water-soluble scintillation fluid, the radioactivity is determined. […]
# EC50 annotations
Give the number; µM is assumed, so skip it.

smiles code	EC50 / µM
N[C@H]1[C@H](O[C@H]2[C@H](O)[C@@H](O)[C@H](OP(=O)(O)O)[C@H](O)[C@@H]2O)O[C@H](CO)[C@@H](O)[C@@H]1O[C@H]1O[C@H](CO[C@H]2O[C@H](CO)[C@@H](O)[C@H](O)[C@@H]2O[C@H]2O[C@H](CO[PH](=O)O)[C@@H](O)[C@H](O)[C@@H]2O[C@H]2O[C@H](CO)[C@@H](O)[C@H](O)[C@@H]2O)[C@@H](O)[C@H](O)[C@@H]1O	18

Consider the additional compound presented here.
Which measured EC50 value corresponds to "N[C@H]1[C@@H](O[C@H]2[C@H](O)[C@@H](O)[C@H](O)[C@H](O)[C@@H]2O)O[C@H](CO)[C@@H](O[C@H]2O[C@H](CO[PH](=O)O)[C@@H](O)[C@H](O)[C@@H]2O)[C@@H]1O" ?
10

* * *

- System: rat fat cells
- test summary: Glucose transport in isolated rat fat cells (insulin-like activity)
- Format: cell-based, rat (Wistar)
- condition description: concentration at 50% of the maximum stimulation achieved by the respective compound; rat fat cells, 2-[3H]-deoxyglucose; read-out: Glucose transport EC50
experimental endpoint: EC50 (µM)
Please respond with the number in µM and leave the unit unwritten.

Would you please look over these solved cases?
compound	experimental value
N[C@H]1[C@H](O[C@@H]2[C@@H](O)[C@H](O)[C@@H](O)[C@H]3OP(=O)(O)O[C@H]32)O[C@H](CO)[C@@H](O[C@H]2O[C@H](CO[C@H]3O[C@H](CO)[C@@H](O)[C@H](O)[C@@H]3O[C@H]3O[C@H](CO[PH](=O)O)[C@@H](O)[C@H](O)[C@@H]3O[C@H]3O[C@H](CO)[C@@H](O)[C@H](O)[C@@H]3O)[C@@H](O)[C@H](O)[C@@H]2O)[C@@H]1O [B]	8.1
N[C@H]1[C@H](O[C@H]2[C@H](O)[C@@H](O)[C@H](OP(=O)(O)O)[C@H](O)[C@@H]2O)O[C@H](CO)[C@@H](O)[C@@H]1O[C@H]1O[C@H](CO[C@H]2O[C@H](CO[PH](=O)O)[C@@H](O)[C@H](O)[C@@H]2O[C@H]2O[C@H](CO[PH](=O)O)[C@@H](O)[C@H](O)[C@@H]2O[C@H]2O[C@H](CO)[C@@H](O)[C@H](O)[C@@H]2O)[C@@H](O)[C@H](O)[C@@H]1O [T]	10
N[C@H]1[C@H](O[C@H]2[C@H](O)[C@@H](O)[C@H](O)[C@@H]3OP(=O)(O)O[C@H]23)O[C@H](CO)[C@@H](O[C@H]2O[C@H](CO[C@H]3O[C@H](CO)[C@@H](O)[C@H](O)[C@@H]3O[C@H]3O[C@H](CO[PH](=O)O)[C@@H](O)[C@H](O)[C@@H]3O[C@H]3O[C@H](CO)[C@@H](O)[C@H](O)[C@@H]3O)[C@@H](O)[C@H](O)[C@@H]2O)[C@@H]1O [A]	8

Data request, read-out EC50, for N[C@H]1[C@H](O[C@H]2[C@H](O)[C@@H](O)[C@H](OP(=O)(O)O)[C@H](O)[C@@H]2O)O[C@H](CO)[C@@H](O)[C@@H]1O[C@H]1O[C@H](CO[C@H]2O[C@H](COS(=O)(=O)O)[C@@H](O)[C@H](O)[C@@H]2O[C@H]2O[C@H](COS(=O)(=O)O)[C@@H](O)[C@H](O)[C@@H]2O[C@H]2O[C@H](CO)[C@@H](O)[C@H](O)[C@@H]2O)[C@@H](O)[C@H](O)[C@@H]1O [W]
10
